Molecular target: T1, Mouse GLP-1 Receptor (mouse, UniProt O35659 22-463)
T1 sequence (looked up): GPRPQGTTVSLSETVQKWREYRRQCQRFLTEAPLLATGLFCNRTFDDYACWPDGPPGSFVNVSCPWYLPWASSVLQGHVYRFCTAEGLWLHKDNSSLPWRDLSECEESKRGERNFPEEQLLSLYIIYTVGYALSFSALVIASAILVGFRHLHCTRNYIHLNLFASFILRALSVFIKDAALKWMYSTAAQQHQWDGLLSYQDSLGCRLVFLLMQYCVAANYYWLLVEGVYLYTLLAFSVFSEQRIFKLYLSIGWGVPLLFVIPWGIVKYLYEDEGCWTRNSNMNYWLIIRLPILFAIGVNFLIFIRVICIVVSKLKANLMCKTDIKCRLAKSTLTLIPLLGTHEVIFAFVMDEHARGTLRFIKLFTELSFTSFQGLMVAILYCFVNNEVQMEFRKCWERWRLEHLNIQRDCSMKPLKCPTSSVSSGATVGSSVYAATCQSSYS
Test: cell-based or functional assay
*1 amine or outer side, *2 acyl side, *3 side chain or, on linkers, in order; H or OH if unused. Primed or numbered codes have the meaning given here. Where no end group is shown, it is not given here. [ ]: non-standard residue; d: D form. The star is where a group is joined. X1 = 4‑(2′-methylphenyl)‑3‑pyridylalanine, Cc1ccccc1-c1ccncc1C[C@H](N[*:1])C(=O)[*:2]; Bip(2′-Et-4′-OH-5′-I) = CCc1cc(O[*:3])c(I)cc1-c1ccc(C[C@H](N[*:1])C(=O)[*:2])cc1; Phe(4-(2-Et-4-HO-Ph)) = CCc1cc(O)ccc1-c1ccc(C[C@H](N)C(=O)O)cc1; IMeOp = 3-(1H-imidazol-4-yl)-2-methoxypropanoyl; αMePhe(2-F) = C[C@](N)(Cc1ccccc1F)C(=O)O; αMeP = C[C@@]1(C(=O)O)CCCN1; Moc = COC(=O)*
ASSAY READOUT: Mean Emax (%), stimulation of cAMP synthesis in CHO cells

Task item: For the binder Moc-H[αMeP]EGT[αMePhe(2-F)]TSD[Bip(2′-Et-4′-OH-5′-I)][X1]-NH2 [Compound of SEQ ID NO: 164] , what Mean Emax (%), stimulation of cAMP synthesis in CHO cells is on record?
Reply: 103

Task item: Entry under review: [IMeOp][αMeP]EGT[αMePhe(2-F)]TSD[Phe(4-(2-Et-4-HO-Ph))][X1]-NH2 (also: IMeOp configuration (S or R) not determined) [Compound of SEQ ID NO: 174 (or 173)*] . Reported Mean Emax (%), stimulation of cAMP synthesis in CHO cells?
Reply: 105

Task item: If you can, please state the reported Mean Emax (%), stimulation of cAMP synthesis in CHO cells value of Moc-H[αMeP]EGT[αMePhe(2-F)]TSD[Phe(4-(2-Et-4-HO-Ph))][X1]-NH2 [Compound of SEQ ID NO: 158] .
Reply: 101

Task item: Item [IMeOp][αMeP]EGT[αMePhe(2-F)]THD[Phe(4-(2-Et-4-HO-Ph))][X1]-NH2 (also: IMeOp configuration (S or R) not determined) [Compound of SEQ ID NO: 176 (or 175)*] has what recorded Mean Emax (%), stimulation of cAMP synthesis in CHO cells?
Reply: 105

Task item: What value of measured Mean Emax (%), stimulation of cAMP synthesis in CHO cells is listed for [IMeOp][αMeP]EGT[αMePhe(2-F)]TSD[Phe(4-(2-Et-4-HO-Ph))][X1]-NH2 (also: IMeOp configuration (R or S) not determined) [Compound of SEQ ID NO: 173 (or 174)*] ?
Reply: 99.7

Task item: Sample [IMeOp][αMeP]EGT[αMePhe(2-F)]THD[Phe(4-(2-Et-4-HO-Ph))][X1]-NH2 (also: IMeOp configuration (R or S) not determined) [Compound of SEQ ID NO: 175 (or 176)*] — what was its Mean Emax (%), stimulation of cAMP synthesis in CHO cells?
Reply: 100

Origin of measurements: patent US7960349B2
